Molecular target: UniProt O60674
Test: Inhibition of N-terminal GST-fused recombinant JAK2 (831 to 1132 residues) (unknown origin) expressed in insect cells using 5FAM-GEEPLYWSFPAKKK-NH2 as substrate by microfluidic capillary electrophoresis method
Listed here: items and their measured IC50.
# value in µM; strip the unit string

CN1CCC(CNc2c(Cl)cnc3[nH]c(-c4ccc(S(C)(=O)=O)cc4)nc23)CC1 | 2.78

Now for a further compound.
Fill blank: measured IC50 of the compound COc1ccc(-c2nc3c(NCC4CCCNC4)c(Cl)cnc3[nH]2)cc1 (stereo not given) is ____.
3.04

###

# pIC50 per entry
Biological target: Tyrosine-protein kinase JAK2 (Homo sapiens)
Test: Inhibition of N-terminal GST-fused recombinant JAK2 (831 to 1132 residues) (unknown origin) expressed in insect cells using 5FAM-GEEPLYWSFPAKKK-NH2 as substrate by microfluidic capillary electrophoresis method
Hey, just a heads up that pIC50 is the negative log base 10 of the concentration in molar.

Observe how each entry below is paired with its result.
COc1ccc(-c2nc3c(NCC4CCNCC4)c(Cl)cnc3[nH]2)c(F)c1 | 4.93
COc1ccc(-c2nc3c(OCC4CCNCC4)c(Cl)cnc3[nH]2)cc1 | 5.00

Here is another compound to look at.
Could you tell me which pIC50 is on file for COc1ccc(-c2nc3c(NCC4CCNC4)c(Cl)cnc3[nH]2)cc1 (centres undefined) ?
4.86

###

Target: Tyrosine-protein kinase JAK1 (Homo sapiens, UniProt P23458)
Sequence (P23458 whole entry, the tested form may be a part): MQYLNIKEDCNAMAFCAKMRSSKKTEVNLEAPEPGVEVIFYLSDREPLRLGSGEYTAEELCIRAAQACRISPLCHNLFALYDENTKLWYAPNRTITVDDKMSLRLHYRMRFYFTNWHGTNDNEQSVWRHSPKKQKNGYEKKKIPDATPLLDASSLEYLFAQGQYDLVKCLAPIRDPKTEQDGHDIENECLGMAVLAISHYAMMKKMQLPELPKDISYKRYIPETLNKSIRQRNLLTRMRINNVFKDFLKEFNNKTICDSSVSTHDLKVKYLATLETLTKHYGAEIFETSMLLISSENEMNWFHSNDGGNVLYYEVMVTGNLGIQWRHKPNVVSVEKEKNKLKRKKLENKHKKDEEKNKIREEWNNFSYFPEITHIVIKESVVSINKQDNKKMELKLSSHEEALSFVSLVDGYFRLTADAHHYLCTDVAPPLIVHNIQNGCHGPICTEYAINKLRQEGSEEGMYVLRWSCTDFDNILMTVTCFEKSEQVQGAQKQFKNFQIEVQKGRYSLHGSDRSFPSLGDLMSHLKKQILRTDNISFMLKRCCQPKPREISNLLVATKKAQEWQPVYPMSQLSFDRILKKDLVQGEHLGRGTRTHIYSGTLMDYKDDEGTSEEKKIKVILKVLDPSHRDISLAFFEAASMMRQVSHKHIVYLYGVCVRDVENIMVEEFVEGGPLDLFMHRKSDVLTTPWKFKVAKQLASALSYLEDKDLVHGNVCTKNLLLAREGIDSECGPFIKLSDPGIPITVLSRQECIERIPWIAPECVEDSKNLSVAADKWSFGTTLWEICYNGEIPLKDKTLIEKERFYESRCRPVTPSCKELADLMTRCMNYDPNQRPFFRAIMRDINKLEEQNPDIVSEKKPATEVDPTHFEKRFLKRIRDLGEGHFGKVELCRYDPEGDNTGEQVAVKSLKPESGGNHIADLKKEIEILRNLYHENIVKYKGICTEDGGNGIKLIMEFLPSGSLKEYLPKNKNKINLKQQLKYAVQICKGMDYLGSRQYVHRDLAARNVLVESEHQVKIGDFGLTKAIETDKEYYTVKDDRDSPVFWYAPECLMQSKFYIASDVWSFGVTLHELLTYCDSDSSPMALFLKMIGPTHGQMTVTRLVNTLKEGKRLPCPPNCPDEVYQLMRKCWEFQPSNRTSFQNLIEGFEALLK
Assay: Inhibition of N-terminal GST-fused human recombinant JAK1 (866 to 1154 residues) expressed in insect cells using FITC-C6-KKHTDDGYMPMSPGVA-NH2 as substrate by microfluidic capillary electrophoresis method
pIC50: −log10 of the molar value.
Measured quantity: pIC50

COc1ccc(-c2nc3c(NC4CCN(C(C)=O)CC4)c(Cl)cnc3[nH]2)cc1 | < 4.52
CNc1c(Cl)cnc2[nH]c(-c3ccc(OC)cc3)nc12 | < 4.52

Next item in the queue.
pIC50 lookup needed for COc1ccc(-c2nc3c(NCC4CCNCC4)ccnc3[nH]2)cc1 , thanks.
< 4.52

###

Target: Tyrosine-protein kinase JAK2 (Homo sapiens, UniProt O60674)
Sequence (O60674 whole entry, the tested form may be a part): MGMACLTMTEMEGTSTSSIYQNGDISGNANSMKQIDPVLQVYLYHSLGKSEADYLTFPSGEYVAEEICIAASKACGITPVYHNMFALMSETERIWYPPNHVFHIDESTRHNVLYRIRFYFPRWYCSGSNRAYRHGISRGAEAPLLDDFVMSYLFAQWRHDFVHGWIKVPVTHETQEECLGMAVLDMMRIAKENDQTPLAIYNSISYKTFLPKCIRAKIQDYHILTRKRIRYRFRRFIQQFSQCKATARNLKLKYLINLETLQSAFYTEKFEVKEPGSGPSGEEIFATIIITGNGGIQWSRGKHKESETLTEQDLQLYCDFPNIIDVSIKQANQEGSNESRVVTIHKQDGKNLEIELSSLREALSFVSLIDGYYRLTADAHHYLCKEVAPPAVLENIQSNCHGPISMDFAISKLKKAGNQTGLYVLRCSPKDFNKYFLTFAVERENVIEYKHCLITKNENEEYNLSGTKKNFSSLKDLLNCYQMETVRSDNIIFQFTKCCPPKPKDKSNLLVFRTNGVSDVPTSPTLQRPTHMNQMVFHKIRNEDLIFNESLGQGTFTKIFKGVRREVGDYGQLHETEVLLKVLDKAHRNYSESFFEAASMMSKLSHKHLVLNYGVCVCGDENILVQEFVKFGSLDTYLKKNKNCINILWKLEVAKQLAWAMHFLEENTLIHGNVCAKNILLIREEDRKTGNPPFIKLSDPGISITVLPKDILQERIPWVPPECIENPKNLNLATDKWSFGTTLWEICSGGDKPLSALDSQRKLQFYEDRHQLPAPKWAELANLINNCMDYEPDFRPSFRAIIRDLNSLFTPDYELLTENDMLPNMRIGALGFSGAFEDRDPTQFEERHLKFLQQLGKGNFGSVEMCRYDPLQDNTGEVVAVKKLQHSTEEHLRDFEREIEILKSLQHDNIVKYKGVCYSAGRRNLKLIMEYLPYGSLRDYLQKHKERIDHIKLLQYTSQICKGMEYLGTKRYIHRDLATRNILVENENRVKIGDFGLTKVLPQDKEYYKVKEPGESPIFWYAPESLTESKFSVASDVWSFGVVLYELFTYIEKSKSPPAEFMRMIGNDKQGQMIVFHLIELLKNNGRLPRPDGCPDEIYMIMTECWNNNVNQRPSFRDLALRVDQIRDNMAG
Experiment: Inhibition of N-terminal GST-fused recombinant JAK2 (831 to 1132 residues) (unknown origin) expressed in insect cells using 5FAM-GEEPLYWSFPAKKK-NH2 as substrate by microfluidic capillary electrophoresis method
Measured quantity: IC50

// known answers, use as guide
COc1ccc(-c2nc3c(NC4CCN(C)CC4)c(Cl)cnc3[nH]2)cc1 | 14.9 µM
COc1ccccc1-c1nc2c(NCC3CCN(C)CC3)c(Cl)cnc2[nH]1 | > 30 µM
CN1CCC(CNc2c(Cl)cnc3[nH]c(-c4cccc(S(C)(=O)=O)c4)nc23)CC1 | > 30 µM
COc1ccc(-c2nc3c(NCC4CCNCC4)ccnc3[nH]2)cc1 | > 30 µM

// switching to the query compound
Requested read-out: IC50. Entry: COc1ccc(-c2nc3c(NCCO)c(Cl)cnc3[nH]2)cc1
> 30 µM

###

Species: Homo sapiens
Test: Selectivity ratio of IC50 for N-terminal GST-fused recombinant JAK2 (831 to 1132 residues) (unknown origin) to N-terminal GST-fused human recombinant JAK1 (866 to 1154 residues)
Reported Ratio IC50 by item:

As a guide, the following entries are already answered.
COc1ccc(-c2nc3c(NCC4CCN(C)CC4)c(Cl)cnc3[nH]2)cc1OC | 137
COc1ccc(-c2nc3c(NC4CCN(C)CC4)c(Cl)cnc3[nH]2)cc1 | 27
CN1CCC(CNc2c(Cl)cnc3[nH]c(-c4cccc(S(C)(=O)=O)c4)nc23)CC1 | > 6
COc1ccc(F)c(-c2nc3c(NCC4CCN(C)CC4)c(Cl)cnc3[nH]2)c1 | > 109
COc1ccc(-c2nc3c(NCC4CCNCC4)c(Cl)cnc3[nH]2)c(C)c1 | 314
COCCNc1c(Cl)cnc2[nH]c(-c3ccc(OC)cc3)nc12 | > 14
COc1cc(F)c(-c2nc3c(NCC4CCNCC4)c(Cl)cnc3[nH]2)cc1F | > 99
COc1ccc(-c2nc3c(NCCO)c(Cl)cnc3[nH]2)cc1 | 2

Request the reported Ratio IC50 associated with CN1CCC(CNc2c(Cl)cnc3[nH]c(-c4cccc(F)c4)nc23)CC1
19

What do we get for COc1ccc(-c2nc3c(NCC4CCNC4)c(Cl)cnc3[nH]2)cc1 (configuration not stated) ?
70

Item: COc1ccc(-c2nc3c(NCC4CCCNC4)c(Cl)cnc3[nH]2)cc1 (configuration not stated)
22

Now consider CN1CCC(CNc2c(Cl)cnc3[nH]c(-c4ccc(S(C)(=O)=O)cc4)nc23)CC1 and answer again.
8

Repeat with COc1ccc(-c2nc3c(OCC4CCNCC4)c(Cl)cnc3[nH]2)cc1
57

What about this compound? COc1ccc(-c2nc3c(NCC4CCN(C)CC4)c(Cl)cnc3[nH]2)cc1
30
